System: human Factor 7 mRNA
Measurement Notes: Antisense inhibition of human Factor 7 mRNA in HepB3 cells, 50 nM antisense oligonucleotide, lipofectin
Type: cell-based
Protocol Conditions: Table 6, 50 nM, lipofectin, approximately 24 hours
Strand notation (5' to 3'): a small letter for the sugar, then the base; units joined by * are phosphorothioate-linked, units joined directly phosphodiester-linked; [ ] holds rarer units or linkages, { } end groups; capitals alone tell only the bases. e = 2'-O-(2-methoxyethyl) (MOE); [5mC] = 5-methylcytosine; d = 2'-deoxy (DNA)
Listed below: % Inhibition values for each entry.

Some entries whose results are on file:
Substance: 422269 (antisense eG*eA*dG*d[5mC]*dG*d[5mC]*dG*dG*dA*dA*dG*dA*dA*dG*dG*eG*eA*e[5mC]*eG*eG) [compound 422269]
% Inhibition: 27%
//
Substance: 422196 (antisense eT*eA*e[5mC]*dT*dG*dA*dG*d[5mC]*dG*d[5mC]*dG*dG*dA*dA*dG*dA*dA*eG*eG*eG) [compound 422196]
% Inhibition: 2%
//
Substance: 422123 (antisense eG*eA*eG*e[5mC]*eG*d[5mC]*dG*dG*dA*dA*dG*dA*dA*dG*dG*eG*eA*e[5mC]*eG*eG) [compound 422123]
% Inhibition: 16%
//
Substance: 422271 (antisense e[5mC]*eT*dG*dA*dG*d[5mC]*dG*d[5mC]*dG*dG*dA*dA*dG*dA*dA*eG*eG*eG*eA*e[5mC]) [compound 422271]
% Inhibition: 32%
//
Substance: 422265 (antisense eG*e[5mC]*dG*dG*dA*dA*dG*dA*dA*dG*dG*dG*dA*d[5mC]*dG*eG*eA*eA*eG*eG) [compound 422265]
% Inhibition: 34%

Bench note, human Factor 7 mRNA: 422191 (antisense eA*eG*e[5mC]*dG*d[5mC]*dG*dG*dA*dA*dG*dA*dA*dG*dG*dG*dA*d[5mC]*eG*eG*eA) [compound 422191] , % Inhibition reads 27%

###

Tested on: human Factor 7 mRNA
Measurement Notes: Antisense inhibition of human Factor 7 mRNA in HepB3 cells, 50 nM antisense oligonucleotide, lipofectin
Type: cell-based
Protocol Conditions: lipofectin, 50 nM antisense oligonucleotide, approximately 24 hours, Factor 7 mRNA by real-time RT-PCR (RTS 2927), relative to untreated control
Strand notation (5' to 3'): a small letter for the sugar, then the base; units joined by * are phosphorothioate-linked, units joined directly phosphodiester-linked; [ ] holds rarer units or linkages, { } end groups; capitals alone tell only the bases. e = 2'-O-(2-methoxyethyl) (MOE); [5mC] = 5-methylcytosine; d = 2'-deoxy (DNA)
Listed below: % Inhibition values for each entry.
# value in %; strip the unit string

Some entries whose results are on file:
Substance: 416478 (antisense eG*eT*e[5mC]*eT*e[5mC]*d[5mC]*dA*dG*d[5mC]*dA*dA*dT*dG*dA*dA*eG*eG*e[5mC]*eA*eG) [compound 416478]
Unit Symbol: %
% Inhibition: 44
--
Substance: 416541 (antisense e[5mC]*e[5mC]*eA*e[5mC]*e[5mC]*d[5mC]*dT*dT*dG*dG*dT*dG*d[5mC]*d[5mC]*d[5mC]*eA*eG*eA*eT*e[5mC]) [compound 416541]
Unit Symbol: %
% Inhibition: 53
--
Substance: 416440 (antisense eG*eG*eA*e[5mC]*eT*dG*dG*dA*dG*d[5mC]*dT*dG*dG*dT*d[5mC]*e[5mC]*eT*eT*eG*e[5mC]) [compound 416440]
Unit Symbol: %
% Inhibition: 44
--
Substance: 407643 (antisense e[5mC]*eA*e[5mC]*eA*e[5mC]*dA*dT*dG*dG*dA*dG*dT*d[5mC]*dA*dG*e[5mC]*eA*eT*e[5mC]*eG) [compound 407643]
Unit Symbol: %
% Inhibition: 80

Alright, here's another substance for you.
Query 416438 (antisense e[5mC]*eA*eG*eG*eA*dG*d[5mC]*d[5mC]*d[5mC]*d[5mC]*d[5mC]*dA*dT*dT*d[5mC]*eT*eG*eG*e[5mC]*eA) [compound 416438] yields % Inhibition of 63

###

Tested on: human Factor 7 mRNA
Measurement Notes: Dose-dependent antisense inhibition of human Factor 7 in HepB3 cells, lipofectin
Type: cell-based
Protocol Conditions: 50 nM, HepB3 cells, approx. 16 hours (Table 14)
Strand notation (5' to 3'): a small letter for the sugar, then the base; units joined by * are phosphorothioate-linked, units joined directly phosphodiester-linked; [ ] holds rarer units or linkages, { } end groups; capitals alone tell only the bases. e = 2'-O-(2-methoxyethyl) (MOE); [5mC] = 5-methylcytosine; d = 2'-deoxy (DNA)
Listed below: percent inhibition of Factor 7 mRNA, relative to untreated control cells values for each entry.
# value in %; strip the unit string

Substance: 422096 (antisense eA*eG*eA*e[5mC]*eA*dA*dT*dG*dG*dT*d[5mC]*dA*dG*dG*dG*e[5mC]*eT*eG*eG*eT) [compound 422096]
Unit Symbol: %
Measured Result: 68

Query 422183 (antisense eG*e[5mC]*eG*d[5mC]*d[5mC]*dA*d[5mC]*d[5mC]*d[5mC]*dG*d[5mC]*d[5mC]*dG*dG*d[5mC]*dT*d[5mC]*eT*eG*e[5mC]) [compound 422183] yields percent inhibition of Factor 7 mRNA, relative to untreated control cells of 84

Query 422294 (antisense eG*eA*dG*dT*dT*d[5mC]*dT*dG*d[5mC]*dA*dG*dG*dA*dG*d[5mC]*eG*eG*e[5mC]*e[5mC]*eT) [compound 422294] yields percent inhibition of Factor 7 mRNA, relative to untreated control cells of 77

Query 422296 (antisense e[5mC]*e[5mC]*dG*dA*dG*dT*dT*d[5mC]*dT*dG*d[5mC]*dA*dG*dG*dA*eG*e[5mC]*eG*eG*e[5mC]) [compound 422296] yields percent inhibition of Factor 7 mRNA, relative to untreated control cells of 78

Query 422142 (antisense eG*eA*eG*eT*eT*d[5mC]*dT*dG*d[5mC]*dA*dG*dG*dA*dG*d[5mC]*eG*eG*e[5mC]*e[5mC]*eT) [compound 422142] yields percent inhibition of Factor 7 mRNA, relative to untreated control cells of 72

Query 422252 (antisense e[5mC]*eG*d[5mC]*d[5mC]*dG*dG*d[5mC]*dT*d[5mC]*dT*dG*d[5mC]*dT*d[5mC]*dA*eT*e[5mC]*e[5mC]*e[5mC]*e[5mC]) [compound 422252] yields percent inhibition of Factor 7 mRNA, relative to untreated control cells of 77

Query 422130 (antisense eG*e[5mC]*e[5mC]*eT*eG*dA*dG*dG*d[5mC]*d[5mC]*dA*dG*d[5mC]*dA*dG*eA*eT*e[5mC]*eA*e[5mC]) [compound 422130] yields percent inhibition of Factor 7 mRNA, relative to untreated control cells of 77

###

System: human Factor 7 mRNA
Measurement Notes: Antisense inhibition of human Factor 7 mRNA in HepB3 cells, 50 nM antisense oligonucleotide, lipofectin
Format: cell-based
Protocol Conditions: oligonucleotides targeted to nucleobases 13760 to 13789 of SEQ ID NO: 1 (Table 10)
Description: Antisense oligonucleotides targeted to a Factor 7 nucleic acid were tested for their effects on Factor 7 mRNA in vitro. […] After a treatment period of approximately 24 hours, RNA was isolated from the cells and Factor 7 mRNA levels were measured by real-time RT-PCR, as described herein. Factor 7 mRNA levels were adjusted according to total RNA content as measured by RIBOGREEN®. […]
Strand notation (5' to 3'): a small letter for the sugar, then the base; units joined by * are phosphorothioate-linked, units joined directly phosphodiester-linked; [ ] holds rarer units or linkages, { } end groups; capitals alone tell only the bases. e = 2'-O-(2-methoxyethyl) (MOE); [5mC] = 5-methylcytosine; d = 2'-deoxy (DNA)
Listed below: % Inhibition (human Factor 7 mRNA levels) values for each entry.

Some entries whose results are on file:
Substance: 422185 (antisense e[5mC]*eT*eG*d[5mC]*dG*d[5mC]*d[5mC]*dA*d[5mC]*d[5mC]*d[5mC]*dG*d[5mC]*d[5mC]*dG*dG*d[5mC]*eT*e[5mC]*eT) [compound 422185]
Measured Result: 48%
//
Substance: 416456 (antisense e[5mC]*eT*eG*e[5mC]*eG*d[5mC]*d[5mC]*dA*d[5mC]*d[5mC]*d[5mC]*dG*d[5mC]*d[5mC]*dG*eG*e[5mC]*eT*e[5mC]*eT) [compound 416456]
Measured Result: 50%
//
Substance: 422253 (antisense e[5mC]*e[5mC]*dG*d[5mC]*d[5mC]*dG*dG*d[5mC]*dT*d[5mC]*dT*dG*d[5mC]*dT*d[5mC]*eA*eT*e[5mC]*e[5mC]*e[5mC]) [compound 422253]
Measured Result: 61%
//
Substance: 422177 (antisense e[5mC]*e[5mC]*e[5mC]*dG*d[5mC]*d[5mC]*dG*dG*d[5mC]*dT*d[5mC]*dT*dG*d[5mC]*dT*d[5mC]*dA*eT*e[5mC]*e[5mC]) [compound 422177]
Measured Result: 74%

Alright, here's another substance for you.
Bench note, human Factor 7 mRNA: 422257 (antisense e[5mC]*e[5mC]*dA*d[5mC]*d[5mC]*d[5mC]*dG*d[5mC]*d[5mC]*dG*dG*d[5mC]*dT*d[5mC]*dT*eG*e[5mC]*eT*e[5mC]*eA) [compound 422257] , % Inhibition (human Factor 7 mRNA levels) reads 65%
